- ASSAY SYSTEM: T1, human CD47-Fc (human, UniProt Q08722 19-134)
- T1 construct: Leu19-Val134 is the natural numbering printed; also called human CD47-Fc receptor; human CD47-Fc (Biocad); not shown: Fc tag of the expression plasmid
- T1 sequence (Q08722 19-134): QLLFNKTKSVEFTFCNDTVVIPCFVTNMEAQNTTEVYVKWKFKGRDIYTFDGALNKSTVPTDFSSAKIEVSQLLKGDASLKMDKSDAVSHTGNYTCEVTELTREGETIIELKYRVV
- PROTOCOL DESCRIPTION: BLI (Octet Red 96), CD47-Fc on ARG2 sensor, VHH in growth medium, 1:1 model
- Experimental: VHH antibody fragments were measured to provide an example of analysis of kinetic parameters of interaction of antibody fragments that specifically bind to CD47 receptor. […] Affinity constants can be calculated based on the exact protein concentration in the test solution, and, since cell growth media were used as a protein solution and protein concentrations were not measured, the candidates were compared to each other by using the dissociation constant thereof. […]
Answer each item with its documented koff.
One number for each entry, in s⁻¹.

Answered examples (5):
{"BINDER": "BCD106-02_L.Alecto.VHHSel2_MP1_G5_37 (VHH, Llama anti-CD47 VHH tested as E. coli culture supernatant; not shown: myc and His6 tags at the C-terminus of the VHH (pET-22)) VHH: AVQLVDSGGGLVQPGGSLRLSCAASRSIFSINAMNWYRQAPGNRREWVAQITDEGITNYVDSVKGRFTITRDNAKNTMYLQMNSLKPEDTAVYYCNAFVITTTSEIYWGQGTTVTVSS", "koff, s⁻¹": 0.006}
{"BINDER": "BCD106-02_L.Alecto.VHHSel2_MP1_F10_76 (VHH, Llama anti-CD47 VHH tested as E. coli culture supernatant; not shown: myc and His6 tags at the C-terminus of the VHH (pET-22)) VHH: DVQLVESGGGLVQPGGSLRLSCAASRNIFSINAMNWYRQAPGKRREWVAQITSEGITNYVDSVKGRFTITRDNAKNTMYLQMNSLKPEDTAVYYCNAFVITASSEVYWGQGTTVTVSS", "koff, s⁻¹": 0.01}
{"BINDER": "BCD106-02_L.Alecto.VHHSel2_MP1_H10_78 (VHH, Llama anti-CD47 VHH tested as E. coli culture supernatant; not shown: myc and His6 tags at the C-terminus of the VHH (pET-22)) VHH: QVKLEESGGGLVQPGGSLRLSCAASRSISSINAMNWYRQAPGKRREWVAQITGEGITNYRDSVKGRFTITSDNAKNTMYLQMNSLKPEDTAVYYCNAFVIHTTSEVYWGQGTLVTVSS", "koff, s⁻¹": 0.006}
{"BINDER": "BCD106-02_L.Alecto.VHHSel2_MP1_G7_53 (VHH, Llama anti-CD47 VHH tested as E. coli culture supernatant; not shown: myc and His6 tags at the C-terminus of the VHH (pET-22)) VHH: QVKLEESGGGLVQPGGSLTLSCAASGIISSINAMNWYRQAPGKRREWVAQITGEGITNCRDSWKGRFSITSDSANNTMYLQMNNLKPDDTDVYYCNAFVIHTTSEIYWGLGTTVTVSS", "koff, s⁻¹": 0.008}
{"BINDER": "BCD106-02_L.Alecto.VHHSel2_MP1_B9_64 (VHH, Llama anti-CD47 VHH tested as E. coli culture supernatant; not shown: myc and His6 tags at the C-terminus of the VHH (pET-22)) VHH: DVQLVESGGGLVQPGGSLTLSCAASRNIFRINAMNWYRQAPGKRREWVAPITSEGITNYVDSVKGRFTITRDNAKNTMYLQMNSLKPEDTAVYYCNACLITASSEVYWGQGTLVTVSS", "koff, s⁻¹": 0.008}

The record that follows has no koff shown yet.
What koff value was documented for this binder, BCD106-02_L.Alecto.VHHSel2_MP1_C7_49 (VHH, Llama anti-CD47 VHH tested as E. coli culture supernatant; not shown: myc and His6 tags at the C-terminus of the VHH (pET-22)) VHH: AVQLVDSGGGLVQPGGSLRLSCAASRSIFSINAMNWYRQPPGNRREWVAQITDEGITNYVDSVKGRFTITRDNAKNTMYLQMNSLKPEDTAVYYCNAFVITTTSEIYWGQGTTVTVSS ?
0.005
